assay: refractive index (Na D-line) (dimensionless); details: 348.15 K; 101.33 kPa; Liquid; Standard Abbe refractometry
observation type: refractive index

[
  {
    "compound": "CCCC[N+](C)(CCCC)CCCC.O=S(=O)([N-]S(=O)(=O)C(F)(F)F)C(F)(F)F [tributylmethylammonium bis((trifluoromethyl)sulfonyl)imide]",
    "numeric value": 1.4118
  },
  {
    "compound": "CC[S+](C)CC.O=S(=O)([N-]S(=O)(=O)C(F)(F)F)C(F)(F)F [diethylmethylsulfonium bis[(trifluoromethyl)sulfonyl]imide]",
    "numeric value": 1.40925
  },
  {
    "compound": "CCCC[N+](C)(C)C.O=S(=O)([N-]S(=O)(=O)C(F)(F)F)C(F)(F)F [butyltrimethylammonium bis(trifluoromethylsulfonyl)imide]",
    "numeric value": 1.39486
  },
  {
    "compound": "CC[S+](CC)CC.O=S(=O)([N-]S(=O)(=O)C(F)(F)F)C(F)(F)F [triethylsulfonium bis((trifluoromethyl)sulfonyl)imide]",
    "numeric value": 1.41215
  }
]
